Source: BindingDB's records for doi:10.7270/Q2ZC817P

Reported pEC50 values follow for various compounds
Target Or System: Sphingosine 1-phosphate receptor 1 (Homo sapiens)
Test Name: potentiators of S1P1 agonist response, dose response, cell-based, potentiator mode, 60K MLSMR set (AID 466)
pEC50 here: minus log base 10 of the concentration, concentration in moles per litre.

Some solved cases for reference:
Compound	pEC50
CCn1nc(-c2ccccc2)nc2c(=O)n(C)c(=O)nc1-2	5.37
CCOc1ccc(C(=O)Nc2c(C(N)=O)oc3ccccc23)cc1	5.44
c1ccc(CN2CCN(c3ncnc4c3[nH]c3ccccc34)CC2)cc1	5.40
CCOc1ccc(-c2nc(-c3ccc(OC)cc3)no2)cc1OCC	6.14
CCOc1ccc(C(C)=O)cc1-n1c(O)c2c(c1O)C1C=CC2O1	4.97

(Q) pEC50 for O=C(CSc1nnc(-c2c[nH]c3ccccc23)o1)N(Cc1ccccc1)c1ccc(F)cc1 ?
(A) 6.08

(Q) pEC50 for Nc1nonc1C(=O)NCCNCc1cc(Br)ccc1OCc1ccccc1F ?
(A) 5.05

(Q) pEC50 for CCn1c(SCC(=O)Nc2nc3ccc(C)cc3s2)nc2c(c1=O)SC(C)C2 (stereo unspecified) ?
(A) 5.11

(Q) pEC50 for CCOC(=O)CN(C(=O)CSc1nnc(-c2cccc(OC)c2)o1)c1ccc(F)cc1 ?
(A) 5.68

====

Reported EC50 values follow for various compounds
Target Or System: Sphingosine 1-phosphate receptor 1 (Homo sapiens, UniProt P21453)
Sequence (P21453 whole entry): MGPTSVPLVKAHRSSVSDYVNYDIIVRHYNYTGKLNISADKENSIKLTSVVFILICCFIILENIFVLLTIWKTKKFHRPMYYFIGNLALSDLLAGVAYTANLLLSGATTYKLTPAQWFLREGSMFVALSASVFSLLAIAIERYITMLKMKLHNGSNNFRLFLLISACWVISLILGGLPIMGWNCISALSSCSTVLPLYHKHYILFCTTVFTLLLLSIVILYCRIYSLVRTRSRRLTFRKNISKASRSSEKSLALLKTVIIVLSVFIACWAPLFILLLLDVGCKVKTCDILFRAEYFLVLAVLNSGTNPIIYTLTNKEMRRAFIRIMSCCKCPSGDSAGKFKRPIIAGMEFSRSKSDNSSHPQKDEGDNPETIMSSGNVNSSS
Test Name: potentiators of S1P1 agonist response, dose response, cell-based, potentiator mode, 60K MLSMR set (AID 466)
Form entry: value (µM) — number only.

Some solved cases for reference:
Compound	Endpoint Label	Recorded Value
CCOc1nc(C)ccc1-c1noc(-c2ccncc2)n1	EC50	6.59
COc1ccc(NC(=O)c2cc(-c3cccs3)on2)cc1OC	EC50	5.28
Fc1ccccc1COc1ccc(C=Nn2cnnc2)cc1	EC50	4.74

(Q) EC50 for Cc1ccc(-c2csc3ncnc(Sc4nnc(CN5CCCCCC5=O)o4)c23)cc1 ?
(A) 2.6

(Q) EC50 for Cc1cc(-c2nnc(-c3ccccc3)c(-c3ccccc3)n2)c(C)o1 ?
(A) 6.75

(Q) EC50 for O=S(=O)(Nc1ccc2c(c1)OCCO2)c1ccc2oc3ccccc3c2c1 ?
(A) 7.43

(Q) EC50 for COCCn1c(C)cc(C(=O)CSc2nc3ccccc3c(=O)[nH]2)c1C ?
(A) 64.4

(Q) EC50 for Cc1cccc(-c2nc(CSCC(=O)N3CCN(Cc4ccc5c(c4)OCO5)CC3)c(C)o2)c1 ?
(A) 5.42

(Q) EC50 for O=C(Nc1nccs1)c1ccc(S(=O)(=O)NCC2CCCCC2)cc1 ?
(A) 7.5

(Q) EC50 for O=C(Nc1ccc(Cl)cc1)N1CCC(c2nc(-c3ccc(F)cc3)no2)CC1 ?
(A) 5.9

(Q) EC50 for Cn1c(SCC(=O)Nc2ccc(N3CCOCC3)c(Cl)c2)nnc1-c1ccccc1 ?
(A) 2.06

(Q) EC50 for COc1cc(C#CC#CCN2CCCCC2)ccc1O ?
(A) 7.1

(Q) EC50 for CCOc1ccc(-c2nnc(-c3cccs3)o2)cc1OCC ?
(A) 5.58

====

Target Or System: Sphingosine 1-phosphate receptor 1 (Homo sapiens)
Test Name: potentiators of S1P1 agonist response, dose response, cell-based, potentiator mode, 60K MLSMR set (AID 466)
Conditions Used: inactive by the depositor's call
Reported EC50 values follow for various compounds
Form entry: value (µM) — number only.

(Q) EC50 for Cc1cc(C(=O)CN2C(=O)c3ccccc3C2=O)c(C)n1Cc1cccs1 ?
(A) 21.4

(Q) EC50 for CCNc1nc2c(c(=O)n(C)c(=O)n2C)n1Cc1ccc(Cl)cc1 ?
(A) 14.4

(Q) EC50 for CC(C)Cn1c(=O)c(C(=O)Nc2ccccc2S(N)(=O)=O)c(O)c2ccccc21 ?
(A) 14.4

(Q) EC50 for CCOC(=O)c1ccc(NC(=O)CCc2nc(-c3ccc(Cl)cc3)no2)cc1 ?
(A) 13

(Q) EC50 for Cc1ccccc1CS(=O)(=O)c1nnc([C@H](CC(C)C)NC(=O)OC(C)(C)C)o1 [SMR000044673] ?
(A) 10.1

(Q) EC50 for CCc1ccc(-c2nc(CSCC(=O)N3CCN(c4ccccn4)CC3)c(C)o2)cc1 ?
(A) 11.5
